These data points were gathered from ChEMBL document CHEMBL4373653.

Target: Tryptophan dimethylallyltransferase (Neosartorya fumigata (strain ATCC MYA-4609 / Af293 / CBS 101355 / FGSCA1100) (Aspergillus fumigatus)) (UniProt Q50EL0)
Sequence (whole entry): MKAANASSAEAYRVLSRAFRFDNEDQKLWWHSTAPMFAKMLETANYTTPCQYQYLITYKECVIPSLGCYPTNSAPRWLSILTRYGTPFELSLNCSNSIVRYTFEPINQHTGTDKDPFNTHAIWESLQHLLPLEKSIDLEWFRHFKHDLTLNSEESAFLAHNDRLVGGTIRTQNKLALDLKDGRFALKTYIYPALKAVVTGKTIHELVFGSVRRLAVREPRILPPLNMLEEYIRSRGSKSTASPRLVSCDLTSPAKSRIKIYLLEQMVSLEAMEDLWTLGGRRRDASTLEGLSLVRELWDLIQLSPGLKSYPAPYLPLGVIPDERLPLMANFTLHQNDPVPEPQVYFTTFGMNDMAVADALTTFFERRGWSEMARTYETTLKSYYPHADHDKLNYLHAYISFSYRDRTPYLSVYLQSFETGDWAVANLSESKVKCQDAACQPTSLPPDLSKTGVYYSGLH
Experiment: Substrate activity at recombinant N-terminal His6-fusion tagged Aspergillus fumigatus FgaPT2 expressed in Escherichia coli BL21 (DE3) assessed as alkylation of L-tryptophan by measuring product formation at pH 7.5 in Tris buffer after 16 hrs by RP-HPLC analysis
Activity calls are given as the source filed them. The rule behind the calls is not given here.
measuredEndpoint: Activity

Example cases with answers are listed next.
chemicalStructure | Activity
CC(=O)COP(=O)(O)OP(=O)(O)O | inactive
COc1cc(COP(=O)(O)OP(=O)(O)O)cc(OC)c1OC | inactive
Cc1ccc(COP(=O)(O)OP(=O)(O)O)cc1 | inactive
COc1ccc(COP(=O)(O)OP(=O)(O)O)c(OC)c1 | inactive
O=P(O)(O)OP(=O)(O)OCc1cc(F)cc(F)c1 | inactive
O=[N+]([O-])c1ccc(COP(=O)(O)OP(=O)(O)O)cc1 | inactive
COc1ccc(COP(=O)(O)OP(=O)(O)O)cc1OC | inactive
C=C(C)COP(=O)(O)OP(=O)(O)O | inactive

Then this molecule:
The molecule listed as "COc1ccc(COP(=O)(O)OP(=O)(O)O)cc1" has a reported Activity of inactive
